Test system: Fam108b (Abhd17b) serine hydrolase [Mus musculus]
Measurement description: mouse Fam108b serine hydrolase inhibitors, confirmation, counter-screen for RBBP9 inhibitor project, biochemical, fluorescence polarization, triplicate (AID 1978);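 further: 0% = median of active Fam108b wells and 100% = catalytically dead S170A mutant; inhibitors free the probe so polarization falls as inhibition rises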
Test parameters: recombinant Fam108b, FP-Rh probe fluorescence polarization; at 9.51 µM; stronger effect = higher value
Some of the results follow.
Quick reference: inhibition of the listed items.
Parameter: inhibition (%)

> print(dat)
                                 chem.smiles  endpoint.value
 1  CCCCC(=O)Nc1nc(C)c(-c2csc(Nc3ccc(Cl)cc3)n2)s1            8.42
 2  Oc1c(Cl)cc(Cl)c(Cl)c1Cc1c(O)c(Cl)cc(Cl)c1Cl            47.1
 3  Cc1ccc(NS(=O)(=O)c2ccc(N/N=C/c3ccccc3OCC(=O)O)c([N+](=O)[O-])c2)c(C)c1            17.7
 4        Oc1oc(-c2ccccc2Br)nc1/C=N/c1ccccn1            68.7
 5       Nc1ccc2nc3c(=O)[nH]c(=S)[nH]c3nc2c1            44.2
 6              COCCOC(=O)c1sc(=S)n(CCOC)c1N            19.6
 7  CC[N+](C)(CC)CCC[n+]1c(-c2ccccc2)c2cc(N)ccc2c2ccc(N)cc21            61.8
 8  Cc1cccc(COc2ccccc2/C=N/Nc2ccc([N+](=O)[O-])cc2)c1            9.96
 9   COc1ccc2nc(Nc3nc4cc5c(cc4s3)OCCO5)sc2c1           -9.21
10  COc1ccc(OC)c(Nc2nc(-c3ccc(O)c(O)c3)cs2)c1           -20.9
11         COc1cccc(C2Nc3cccc4cccc(c34)N2)c1            12.6
12  O=C(CCn1c(SCC(=O)c2ccccc2)nc2ccccc2c1=O)NCc1ccc(F)cc1           -13.1
13  Clc1ccccc1CSc1nnc(-c2ccco2)c(-c2ccco2)n1               1
14  O=C(Nc1ccc(-c2csc(Nc3cccc(C(F)(F)F)c3)n2)cc1)c1cccc(C(F)(F)F)c1            33.6

###

Tested target: Steroidogenic factor 1 (Homo sapiens) (UniProt Q13285)
Sequence (Q13285 whole entry, looked up): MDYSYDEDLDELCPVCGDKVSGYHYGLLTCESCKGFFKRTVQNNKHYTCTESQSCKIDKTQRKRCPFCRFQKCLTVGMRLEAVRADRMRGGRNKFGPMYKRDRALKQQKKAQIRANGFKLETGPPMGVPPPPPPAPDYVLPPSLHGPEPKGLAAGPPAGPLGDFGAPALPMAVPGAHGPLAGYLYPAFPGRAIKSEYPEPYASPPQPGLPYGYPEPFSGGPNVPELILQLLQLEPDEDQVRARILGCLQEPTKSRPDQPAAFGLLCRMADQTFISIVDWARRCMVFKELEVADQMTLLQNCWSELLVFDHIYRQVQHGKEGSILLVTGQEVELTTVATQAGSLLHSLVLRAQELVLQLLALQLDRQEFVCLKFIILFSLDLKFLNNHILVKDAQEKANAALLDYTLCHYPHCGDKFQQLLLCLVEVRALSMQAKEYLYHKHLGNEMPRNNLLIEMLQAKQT
Measurement description: SF1 (NR5A1) inverse agonists, counter-screen for LRH-1 inverse agonist project, cell-based, luminescence, high throughput (AID 651614);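 further: cells cotransfected with StAR promoter reporter and SF1 expression vector; 0% = vehicle on cells with receptor and 100% = vehicle on cells lacking receptor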
Test parameters: cell-based SF1 luciferase reporter, at 3.6 µM, stronger effect = higher value
Parameter: inhibition (%)

> print(dat)
                                    compound  endpoint.value
 1  COc1ccc(-c2cc3ccccc3oc2=O)cc1NC(=O)c1ccc([N+](=O)[O-])o1            22.5
 2  CCOc1ccc(NC(=O)CSc2nc3ccccc3c(=O)n2CCCC(=O)NCC2CCCO2)cc1 (stereo not drawn)            40.1
 3  Cc1ccc(NC(=O)[C@H](Cc2c[nH]c3ccccc23)NC(=O)[C@@H]2Cc3ccccc3CN2)c(C)c1            71.4
 4              Brc1ccc2ncnc(NCc3ccccc3)c2c1            59.9
 5     Cc1cc(C)c2c(C)c(C(=O)NCc3ccncc3)oc2c1            38.3
 6  COc1ccc(N=C2NN=C(c3c(C)[nH]c4ccccc34)CS2)cc1            32.1
 7      CC(C)(C)NCC(=Cc1ccccc1)C(=O)c1ccccc1            84.3
 8  COc1cc2c(OC(C)=O)c3c(c(-c4ccc5c(c4)OCO5)c2cc1OC)C(=O)OC3            36.2
 9            Cc1ccc(-n2nnnc2-c2ccccc2Br)cc1              52
10  CCc1cc(=O)oc2c(C)c(OCC(=O)NCCCN3CCCC3=O)ccc12            48.4
11  CC(C)(C)c1ccc(C(=O)Nc2ccc(CC(=O)O)cc2)o1            46.9
12  Cc1ccc(/C=C2\SC(=S)N(c3c(C)n(C)n(-c4ccccc4)c3=O)C2=O)cc1            45.5
13  CC(=O)Nc1cc(-c2cccc(NS(C)(=O)=O)c2)cn2c(-c3ccccc3)cnc12            34.3
14  COCC1CCCN(C(=O)c2cc(COc3ccc4ncccc4c3)on2)C1 (stereo not drawn)            64.1
15  CCc1ccc(S(=O)(=O)/N=C2\C=C(Nc3ccc(O)cc3)C(=O)c3ccccc32)cc1              96
16  Cc1cccc(NC(=O)CSc2nnc([C@@H]3CCCN3C(=O)OC(C)(C)C)o2)c1C            73.5
17                  Nc1ccc(Oc2ccc(Cl)cc2)cc1              31
18  O=C(NCc1ccc2c(c1)OCO2)c1nn(-c2ccccc2)c(=O)c2ccccc12            53.3
19  COC(=O)c1c(NC(=O)c2cccc([N+](=O)[O-])c2)sc(C(N)=O)c1C            80.5
20  CC1=C(CO)C(=O)OC([C@@H](C)C2CC[C@H]3C4C[C@H]5O[C@]56[C@@H](O)C=CC(=O)[C@]6(C)C4CC[C@]23C)C1 (stereo partly drawn)            79.8
21          O=C1C=C(NCCc2ccccc2)C2(CCCCC2)O1            49.5
22    C(=N\Nc1nc2ccccc2[nH]1)/c1cccc2cccnc12            64.3
23  CCOc1ccc(NC(=O)COC(=O)COc2cccc3c2OC(C)(C)C3)cc1            60.5
24            CCCCCn1c2c(c(=N)c3ccccc31)CCC2              83
25  O=C(c1ccccc1Br)N1CCN(c2ccc([N+](=O)[O-])c(N3CCOCC3)c2)CC1            38.9
26  Oc1ccccc1-c1nc(NCC2CCCO2)c2ccccc2n1 (stereo not drawn)              58
27  CCNc1nc(NC(C)(C)C)nc(SC(C(C)=O)C(C)=O)n1            64.2
28   O=C(NCc1cccc(C(F)(F)F)c1)c1cccc(Cl)c1Cl              48
29  COc1cc2nc(/C=C/c3cc(OC)c(OC)c(OC)c3)sc2cc1SC            58.6
30  COc1ccc(NC(=O)c2cc(-c3cc(F)ccc3OC)n[nH]2)cc1OC            49.4
31  O=C(CC1CS(=O)(=O)CC1CC(=O)Nc1ccc2c(c1)OCCO2)Nc1ccc2c(c1)OCCO2 (stereo not drawn)           -43.4
32     Oc1[nH]c2ccc(Br)cc2c1N=NC(=S)N1CCOCC1            87.7
33  Cc1ccc(NC(=O)Cc2nnc(SCC(=O)Nc3ccc(N4CCOCC4)cc3)n2C)cc1            51.9
34  CN1CCN(c2ccc(NC(=O)c3ccc(-c4ccc(Br)cc4)o3)cc2)CC1            50.9
35  CC(C)C(=O)Nc1ccc(C(=O)CN2C(=O)NC3(CCOc4ccccc43)C2=O)cc1 (stereo not drawn)            36.7
36  Cn1c(SCC(=O)Nc2ccc(N3CCOCC3)cc2)nnc1-c1ccco1            49.4
37  CCOC(=O)c1c(NC(=O)/C=C/C(=O)O)sc(C)c1-c1ccc(Cl)cc1            48.9
38            O=C(CCl)Nc1ccccc1C(=O)c1ccccc1              50
39      CCOC(=O)CCCc1ccc(/C(C)=N/NC(N)=S)cc1            68.6
40                CCCCCOc1ccc(Br)cc1CSC(=N)N            66.2
41  Cn1c(SCC(=O)Nc2ccc(N3CCOCC3)cc2)nnc1-c1ccccc1            47.5
42             Cc1cc(NC(=O)C(Cl)Cl)cc2c1OCO2            45.6
43  CCOc1ccc(C(=O)c2cc([N+](=O)[O-])ccc2Cl)cc1            39.5

###

Tested target: Steroidogenic factor 1 (Homo sapiens)
Measurement description: SF1 (NR5A1) inverse agonists, counter-screen for LRH-1 inverse agonist project, cell-based, luminescence, high throughput (AID 651614);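 further: cells cotransfected with StAR promoter reporter and SF1 expression vector; 0% = vehicle on cells with receptor and 100% = vehicle on cells lacking receptor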
Test parameters: cell-based SF1 luciferase reporter, at 3.6 µM, stronger effect = higher value
Could you label it yes (1) if measured inhibition is 60% or higher, and no (0) otherwise?

> print(dat)
                                    compound                          tested.target  group.label
 1       C/C(=N\NC(N)=S)C12CC3CC(CC(C3)C1)C2  Steroidogenic factor 1 (Homo sapiens)      yes (1)
 2  Nc1nc(-c2ccccc2)c(CCCOc2ccc(NC(=O)CBr)cc2)c(=O)[nH]1  Steroidogenic factor 1 (Homo sapiens)       no (0)
 3    CCOC(=O)C1CCN(Cc2cc(Cl)c3ccccc3c2O)CC1  Steroidogenic factor 1 (Homo sapiens)       no (0)
 4                    C#CCSc1nsc(SCC#C)c1C#N  Steroidogenic factor 1 (Homo sapiens)       no (0)
 5  Cc1ccc(NC(=O)CSc2nc3ncc(Br)cc3[nH]2)cc1C  Steroidogenic factor 1 (Homo sapiens)       no (0)
 6  CCCc1nc2cc(C)c(Br)c(C)n2c1Cc1ccc(OC)cc1C  Steroidogenic factor 1 (Homo sapiens)       no (0)
 7  COc1ccc(NC(=O)COc2ccc(N(C)S(=O)(=O)c3ccc(Cl)cc3)cc2)cc1OC  Steroidogenic factor 1 (Homo sapiens)       no (0)
 8      O=[N+]([O-])c1ccc(N2CCCC2)nc1N1CCCC1  Steroidogenic factor 1 (Homo sapiens)       no (0)
 9  COC(=O)c1ccc(NC(=O)CSc2ccc(-c3ccccn3)nn2)cc1  Steroidogenic factor 1 (Homo sapiens)       no (0)
10     N=c1c2c(n(Cc3ccc(F)cc3)c3c1CCC3)CCCC2  Steroidogenic factor 1 (Homo sapiens)      yes (1)
11  CCCC(=O)N1CCN(c2ccc(NC(=O)c3ccc([N+](=O)[O-])o3)cc2)CC1  Steroidogenic factor 1 (Homo sapiens)       no (0)
12  COc1ccc(-c2cnc3c(NC=O)cc(-c4ccc(S(C)(=O)=O)cc4)cn23)cc1OC  Steroidogenic factor 1 (Homo sapiens)       no (0)
13         CC(=NNC(=S)Nc1cccc(Cl)c1)c1ccccn1  Steroidogenic factor 1 (Homo sapiens)      yes (1)
14           O=C1C(=C(I)I)c2ccccc2-c2ccccc21  Steroidogenic factor 1 (Homo sapiens)       no (0)
15  CCn1c(=S)sc2c(=O)n(CC(=O)Nc3ccc(Cl)cc3)c(C)nc21  Steroidogenic factor 1 (Homo sapiens)       no (0)
16    Cc1nn(-c2nc3ccccc3[nH]2)c(=O)c2ccccc12  Steroidogenic factor 1 (Homo sapiens)      yes (1)
17  CCN(CC)C1Oc2cc3c(cc2C(c2cccc(OC)c2O)C1C)OCO3 (configuration not stated)  Steroidogenic factor 1 (Homo sapiens)      yes (1)
18  CC1(C)CC(N2CCN(C(c3ccccc3)c3ccccc3)CC2)=CC(=[N+]2CCCCC2)C1  Steroidogenic factor 1 (Homo sapiens)      yes (1)
19  Cc1ccccc1C(=O)N1CCN(c2ccc(NC(=O)c3ccc4c(c3)OCO4)cc2)CC1  Steroidogenic factor 1 (Homo sapiens)      yes (1)
